Data provenance is patent EP0908457B1.

test system: Monochoria vaginalis, Presl.; assay: Postemergence weed control under flooded paddy conditions, MOOVA (Monochoria); format: in vivo; settings: Rate 0.0620 kg/ha, rated three to four weeks after treatment
Give measured herbicidal effect rating, MOOVA for each item. Keep answers brief.
Answers are plain numbers.

{"Item Smiles": "CCCCC(=O)c1nsc2ccc(-n3c(=O)cc(C(F)(F)F)n(C)c3=O)cc12", "herbicidal effect rating, MOOVA": 9.0}

Kindly give each listed record's herbicidal effect rating, MOOVA.
1. COc1cc2c(cc1-c1nsc3ccc(-n4c(=O)cc(C(F)(F)F)n(C)c4=O)cc13)CCC2
2. CCC(C#N)(CC)c1nsc2ccc(-n3c(=O)cc(C(F)(F)F)n(C)c3=O)cc12
3. CON(C)C(=O)COc1ccccc1-c1nsc2ccc(-n3c(=O)cc(C(F)(F)F)n(C)c3=O)cc12
4. Cc1ccc(OCC(=O)OCC2(c3ccccc3)CC2)c(-c2nsc3ccc(-n4c(=O)cc(C(F)(F)F)n(C)c4=O)cc23)c1
5. COc1cc(C)c(I)cc1-c1nsc2ccc(-n3c(=O)cc(C(F)(F)F)n(C)c3=O)cc12

Result:
1: 9.0; 2: 0.0; 3: 9.0; 4: 9.0; 5: 4.0
